biological target: UniProtKB Q9HBH9; experiment: Mnk2a in vitro kinase assay (indirect fluorescence polarization); conditions: GST-Mnk2a pre-activated with ERK2, 20 μM ATP, 30 μM substrate peptide; read-out: MNK2 IC50
Recorded measurements of IC50, one per entry
observable: IC50 (µM)

Cc1c(C(=O)NCCCN(C)C)sc2ncnc(Nc3ccc(F)cc3O[C@@H]3CCOC3)c12    0.026
Cc1c(C(=O)NCCCCCN(C)C)sc2ncnc(Nc3ccc(F)cc3OC3CCOCC3)c12    0.023
COCC(C)NC(=O)c1sc2ncnc(Nc3ccc(F)cc3OC3CCOCC3)c2c1C (centres unmarked)    0.06
Cc1c(C(=O)NCC(C)O)sc2ncnc(Nc3ccc(F)cc3OC3CCOCC3)c12 (centres unmarked)    0.042
Cc1c(C(=O)NCc2ccco2)sc2ncnc(Nc3ccc(F)cc3OC3CCCNC3)c12 (centres unmarked)    0.026
Cc1c(C(=O)NC2CCN(C)CC2)sc2ncnc(Nc3ccc(F)cc3OC3CCN(S(C)(=O)=O)C3)c12 (centres unmarked)    0.051
C#CCNC(=O)c1sc2ncnc(Nc3ccc(F)cc3OC3CCOCC3)c2c1C    0.027
Cc1c(C(=O)NCCC#N)sc2ncnc(Nc3ccc(F)cc3OC3CCOCC3)c12    0.035
Cc1c(C(=O)NCCCN2CCCC2)sc2ncnc(Nc3ccc(F)cc3O[C@@H]3CCOC3)c12    0.025
Cc1c(C(=O)NCCCN2CC[C@@H](O)C2)sc2ncnc(Nc3ccc(F)cc3OC3CCOCC3)c12    0.021
Cc1c(C(=O)NC2CCN(C)CC2)sc2ncnc(Nc3cccnc3OC3CCOCC3)c12    0.042
COCCONC(=O)c1sc2ncnc(Nc3ccc(F)cc3OC3CCOCC3)c2c1C    0.039
Cc1c(C(=O)NS(C)(=O)=O)sc2ncnc(Nc3ccc(F)cc3OC3CCOCC3)c12    0.012
Cc1c(C(=O)NCC(=O)N(C)C)sc2ncnc(Nc3ccc(F)cc3OC3CCOCC3)c12    0.065
Cc1c(C(N)=O)sc2ncnc(Nc3ccc(F)cc3O[C@@H]3CCCN(CC(F)(F)F)C3)c12    0.005
Cc1c(C(=O)NCC#CCN(C)C)sc2ncnc(Nc3cccnc3O[C@@H]3CCCOC3)c12    0.023
Cc1c(C(=O)NCC2CCCN(C)C2)sc2ncnc(Nc3ccc(F)cc3OC3CCOCC3)c12 (centres unmarked)    0.038
Cc1c(C(=O)NCCO)sc2ncnc(Nc3cccnc3O[C@@H]3CCCOC3)c12    0.039
Cc1c(C(=O)NCCN2CCCC2=O)sc2ncnc(Nc3ccc(F)cc3OC3CCOCC3)c12    0.105
Cc1c(C(=O)NCC(C)(C)C)sc2ncnc(Nc3ccc(F)cc3OC3CCCNC3)c12 (centres unmarked)    0.076
Cc1c(C(=O)NCCC2CCCN2C)sc2ncnc(Nc3ccc(F)cc3OC3CCCNC3)c12 (centres unmarked)    0.046
Cc1c(C(=O)NCc2ccc(Cl)c(F)c2)sc2ncnc(Nc3ccc(F)cc3OC3CCCNC3)c12 (centres unmarked)    0.048
Cc1c(C(=O)NCC2CN(C)CCO2)sc2ncnc(Nc3ccc(F)cc3O[C@@H]3CCOC3)c12 (some centres unmarked)    0.02
Cc1c(C(=O)NCC(F)(F)F)sc2ncnc(Nc3ccc(F)cc3OC3CCOCC3)c12    0.044
Cc1c(C(=O)NCc2cccs2)sc2ncnc(Nc3ccc(F)cc3OC3CCCNC3)c12 (centres unmarked)    0.034
Cc1c(C(=O)NCCCN2CC[C@H](O)C2)sc2ncnc(Nc3ccc(F)cc3OC3CCOCC3)c12    0.028

====

target: human Mnk2a (Homo sapiens, UniProt Q9HBH9); assay: Mnk2a in vitro kinase assay (indirect fluorescence polarization); conditions: GST-Mnk2a pre-activated with ERK2, 20 μM ATP, 30 μM substrate peptide; read-out: MNK2 IC50
Sequence (Q9HBH9 whole entry): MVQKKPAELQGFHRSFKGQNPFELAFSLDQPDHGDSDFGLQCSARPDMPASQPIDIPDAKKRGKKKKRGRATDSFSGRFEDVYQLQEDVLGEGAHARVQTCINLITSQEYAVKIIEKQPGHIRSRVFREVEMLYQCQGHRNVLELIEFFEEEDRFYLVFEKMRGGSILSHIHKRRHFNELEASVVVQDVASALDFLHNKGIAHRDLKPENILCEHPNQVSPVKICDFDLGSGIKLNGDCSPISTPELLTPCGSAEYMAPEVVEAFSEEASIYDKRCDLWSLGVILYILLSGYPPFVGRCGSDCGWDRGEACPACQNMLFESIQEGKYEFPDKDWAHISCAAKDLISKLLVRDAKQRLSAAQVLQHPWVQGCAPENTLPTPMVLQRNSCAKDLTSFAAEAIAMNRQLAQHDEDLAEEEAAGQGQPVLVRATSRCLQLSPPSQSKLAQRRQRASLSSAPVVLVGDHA
observable: IC50 (nM)

COCCN1CCC[C@@H](Oc2cc(F)ccc2Nc2ncnc3sc(C(N)=O)c(C)c23)C1    22
Cc1c(C(N)=O)sc2ncnc(Nc3ccc(F)cc3O[C@H]3CCCN(CC(C)C)C3)c12    4400
Cc1c(C(=O)NCc2ccccc2)sc2ncnc(Nc3ccc(F)cc3OC3CCCNC3)c12 (centres unmarked)    48
Cc1c(C(=O)NCCCN(C)C)sc2ncnc(Nc3cccnc3O[C@@H]3CCOC3)c12    100
Cc1c(C(=O)NCCCN2CCCC2)sc2ncnc(Nc3ccc(F)cc3O[C@@H]3CCCOC3)c12    20
Cc1c(C(=O)N[C@H]2C[C@H](N)C2)sc2ncnc(Nc3ccc(F)cc3OC3CCOCC3)c12    41
CONC(=O)c1sc2ncnc(Nc3cccnc3O[C@@H]3CCCOC3)c2c1C    46
Cc1c(C(=O)NCC(C)(C)O)sc2ncnc(Nc3ccc(F)cc3OC3CCCNC3)c12 (centres unmarked)    99

====

Recorded measurements of pIC50, one per entry
target: human Mnk2a (Homo sapiens, UniProt Q9HBH9); experiment: Mnk2a in vitro kinase assay (indirect fluorescence polarization); details: GST-Mnk2a pre-activated with ERK2, 20 μM ATP, 30 μM substrate peptide; read-out: MNK2 IC50
pIC50: −log10 of the molar value.
observable: pIC50

Cc1c(C(=O)NCC2CN(C)CCO2)sc2ncnc(Nc3ccc(F)cc3OC3CCCNC3)c12 (stereo not drawn)    7.29
Cc1c(C(=O)NCc2ccccn2)sc2ncnc(Nc3ccc(F)cc3OC3CCOCC3)c12    7.48
CC(=O)NCCCNC(=O)c1sc2ncnc(Nc3ccc(F)cc3OC3CCOCC3)c2c1C    7.44

====

Recorded measurements of pIC50, one per entry
target: human Mnk2a (Homo sapiens, UniProt Q9HBH9); test: Mnk2a in vitro kinase assay (indirect fluorescence polarization); settings: GST-Mnk2a pre-activated with ERK2, 20 μM ATP, 30 μM substrate peptide; read-out: MNK2 IC50
pIC50: −log10 of the molar value.
observable: pIC50

CCNC(=O)c1sc2ncnc(Nc3ccc(F)cc3OC3CCOCC3)c2c1C [Example 227]    7.33
Cc1c(C(=O)NCC2CC2)sc2ncnc(Nc3ccc(F)cc3OC3CCCNC3)c12 (stereo not drawn) [Example 19]    7.33
Cc1c(C(=O)NCCCN(C)C)sc2ncnc(Nc3cccnc3O[C@@H]3CCCOC3)c12 [Example 265]    7.47
Cc1c(C(=O)NCc2ccc(O)cc2)sc2ncnc(Nc3ccc(F)cc3OC3CCCNC3)c12 (stereo not drawn) [Example 34]    7.46
Cc1c(C(=O)NCCN2CCCCC2)sc2ncnc(Nc3ccc(F)cc3OC3CCOCC3)c12 [Example 222]    7.29
Cc1c(C(=O)NC2CN(C)C2)sc2ncnc(Nc3ccc(F)cc3OC3CCOCC3)c12 [Example 200]    7.16

====

Molecular target: human Mnk2a (Homo sapiens, UniProt Q9HBH9)
Experiment: Mnk2a in vitro kinase assay (indirect fluorescence polarization)
Settings: GST-Mnk2a pre-activated with ERK2, 20 μM ATP, 30 μM substrate peptide; read-out: MNK2 IC50
Protocol: Inhibitory potency of compounds against Mnk1, Mnk2a and other kinases was assessed with assays based on a format known to those skilled in the art as the indirect (competitive) fluorescence polarization. The assay detection system comprises a small fluorophore-labeled phospho-peptide (termed ligand) bound to a phospho-specific antibody. The product generated by the kinase reaction competes with the ligand for antibody binding. […]
observable: IC50

Cc1c(C(=O)NCC2(O)CC2)sc2ncnc(Nc3ccc(F)cc3OC3CCOCC3)c12    47 nM
Cc1c(C(=O)NCc2ccccc2C#N)sc2ncnc(Nc3ccc(F)cc3OC3CCCNC3)c12 (stereo not shown)    31 nM
CCCOCCNC(=O)c1sc2ncnc(Nc3ccc(F)cc3OC3CCOCC3)c2c1C    56 nM
Cc1c(C(=O)NCCS(=O)(=O)N(C)C)sc2ncnc(Nc3ccc(F)cc3OC3CCCNC3)c12 (stereo not shown)    51 nM
Cc1c(C(=O)NCCCc2c[nH]cn2)sc2ncnc(Nc3ccc(F)cc3OC3CCOCC3)c12    38 nM
Cc1c(C(=O)NCCc2cnn(C)c2)sc2ncnc(Nc3ccc(F)cc3OC3CCOCC3)c12    41 nM
Cc1c(C(=O)NC(C)(C)CO)sc2ncnc(Nc3ccc(F)cc3OC3CCOCC3)c12    55 nM

====

biological target: human Mnk2a (Homo sapiens, UniProt Q9HBH9); assay: Mnk2a in vitro kinase assay (indirect fluorescence polarization); conditions: GST-Mnk2a pre-activated with ERK2, 20 μM ATP, 30 μM substrate peptide; read-out: MNK2 IC50
Labelling field: enter label 1 if recorded IC50 is less than 40 nM. Enter label 0 if it equals or exceeds that cut-off.

Cc1c(C(=O)N[C@@H](C)C(=O)O)sc2ncnc(Nc3ccc(F)cc3OC3CCOCC3)c12    label 0
Cc1c(C(=O)NCC#N)sc2ncnc(Nc3ccc(F)cc3OC3CCOCC3)c12    label 1
Cc1c(C(=O)NCc2ccc3sccc3c2)sc2ncnc(Nc3ccc(F)cc3OC3CCCNC3)c12 (stereo not drawn)    label 1
Cc1c(C(=O)NCCc2cccs2)sc2ncnc(Nc3ccc(F)cc3OC3CCCNC3)c12 (stereo not drawn)    label 0
Cc1c(C(=O)NCCCS(C)(=O)=O)sc2ncnc(Nc3ccc(F)cc3OC3CCOCC3)c12    label 1
COCCCNC(=O)c1sc2ncnc(Nc3ccc(F)cc3OC3CCOCC3)c2c1C    label 1
Cc1c(C(=O)NCC[S+](C)[O-])sc2ncnc(Nc3ccc(F)cc3OC3CCOCC3)c12 (stereo not drawn)    label 1
CCC(CO)NC(=O)c1sc2ncnc(Nc3ccc(F)cc3OC3CCOCC3)c2c1C (stereo not drawn)    label 0
Cc1c(C(=O)NCC2CN(C)CCO2)sc2ncnc(Nc3ccc(F)cc3OC3CCOCC3)c12 (stereo not drawn) [Example 117]    label 1
Cc1c(C(=O)NCCc2cn[nH]c2)sc2ncnc(Nc3ccc(F)cc3OC3CCCNC3)c12 (stereo not drawn)    label 0
Cc1c(C(=O)N[C@H]2CC[C@H](CO)CC2)sc2ncnc(Nc3ccc(F)cc3OC3CCOCC3)c12    label 1
Cc1c(C(N)=O)sc2ncnc(Nc3ccc(Cl)cc3O[C@H]3CCCNC3)c12    label 1
Cc1c(C(=O)NCCc2c[nH]cn2)sc2ncnc(Nc3ccc(F)cc3OC3CCOCC3)c12    label 1
Cc1c(C(=O)NCc2cccc(F)c2)sc2ncnc(Nc3ccc(F)cc3OC3CCCNC3)c12 (stereo not drawn)    label 0
